Consider the following compounds; for each one, report its GI50.
- Test system: NCI-H226
- test-name: NCI tumour cell line growth inhibition, 48 h
Activity calls are given as the source filed them. Cut-off read from the data, not from the text of the source: active = GI50 up to about 1.1 µM and inactive = higher.

Query block: Value lookup for GI50; key = O=C(/C=C/c1ccccc1Cl)NC1C=Nc2ccc([N+](=O)[O-])cc2NC1 (stereo not given)
Result block: > 100 µM (inactive)

Query block: Value lookup for GI50; key = COc1ccccc1NC(=O)CSC(N)=O
Result block: 39.2 µM (inactive)

Query block: Value lookup for GI50; key = CC1=NC2=Nc3nc(C)cc[n+]3CN2C=C1
Result block: > 100 µM (inactive)

Query block: Value lookup for GI50; key = COc1cc(/C=C/C=C2\CC(C)C/C(=C\C=C\c3ccc(O)c(OC)c3)C2=O)ccc1O (stereo not given)
Result block: 14.8 µM (inactive)

Query block: Value lookup for GI50; key = N=C(NCc1ccccc1)N/N=C\c1ccnc2ccccc12
Result block: 17.1 µM (inactive)

Query block: Value lookup for GI50; key = CC(C)(SCc1ccccc1)C(N)C(=O)O (stereo not given)
Result block: > 100 µM (inactive)

Query block: Value lookup for GI50; key = Oc1ccc(-c2nc(-c3cccnc3)c(-c3ccc(Cl)cc3)[nH]2)cc1O
Result block: 16.2 µM (inactive)

Query block: Value lookup for GI50; key = Cc1cnc2c(c1)C(=O)N(c1ccc([N+](=O)[O-])cc1)S2(=O)=O
Result block: 19.9 µM (inactive)

Query block: Value lookup for GI50; key = CC1(C)CC(C)(C)CC(O)(C2(O)CC(C)(C)CC(C)(C)C2)C1
Result block: > 100 µM (inactive)

Query block: Value lookup for GI50; key = COC([C@@H](OC(=O)c1ccccc1)[C@H](OC(=O)c1ccccc1)C(O)COC(=O)c1ccccc1)n1cc(C)c(=O)[nH]c1=O (stereo not given in full)
Result block: 20.8 µM (inactive)

---

Consider the following compounds; for each one, report its GI50.
- Tested on: CCRF-CEM
- test-name: NCI tumour cell line growth inhibition, 48 h
Calls of active or inactive are those of the source. No stated cut-off is given here; in the data, active = GI50 up to about 1.1 µM and inactive = higher.

Query block: Value lookup for GI50; key = CC1(C)OCC2OC3(c4nc(C#N)c(N)o4)OC(C)(C)OC3C2O1 (stereo not given)
Result block: > 100 µM (inactive)

Query block: Value lookup for GI50; key = Cc1cc(N(CCC#N)CCC#N)ccc1/N=N/c1ccc([N+](=O)[O-])cc1
Result block: > 100 µM (inactive)

Query block: Value lookup for GI50; key = COc1ccccc1NC(=O)CSC(N)=O
Result block: 12.9 µM (inactive)

Query block: Value lookup for GI50; key = COc1cc(-c2ccc(/N=N/c3ccc4c(S(=O)(=O)O)cc(S(=O)(=O)O)c(N)c4c3O)c(OC)c2)ccc1/N=N/c1ccc2c(S(=O)(=O)O)cc(S(=O)(=O)O)c(N)c2c1O
Result block: > 100 µM (inactive)

Query block: Value lookup for GI50; key = CC1(C)OC(C(C)(C)O)C(C(C)(C)O)O1 (stereo not given)
Result block: > 100 µM (inactive)

---

- System: RXF 393
- test-name: NCI tumour cell line growth inhibition, 48 h
Active and inactive are the calls of the source. Cut-off read from the data, not from the text of the source: active = GI50 up to about 1.1 µM and inactive = higher.
reported-endpoint: GI50

Query block: Entry O=c1c(Cc2ccc(Cc3c(O)oc4ccccc4c3=O)cc2)c(O)oc2ccccc12 , system RXF 393: what GI50 was measured?
Result block: > 100 µM (inactive)

Query block: Entry CC(=O)[C@]1(O)Cc2c(O)c3c(c(O)c2[C@@H](OC2CC(N)C(O)C(C)O2)C1)C(=O)c1c(OCc2ccccc2)cccc1C3=O (stereo not given in full) , system RXF 393: what GI50 was measured?
Result block: 2.63 µM (inactive)

Query block: Entry COc1ccc(NC(=O)C(C)Oc2ccc(OCC3CCCCC3)cc2)cc1 (stereo not given) , system RXF 393: what GI50 was measured?
Result block: > 100 µM (inactive)

Query block: Entry CC1CC[C@@]2(OC1)O[C@H]1[C@H](O)[C@H]3[C@@H]4CC[C@H]5C[C@@H](OC6OC(CO)C(OC7OC(CO)C(O)C(OC8OCC(O)C(O)C8O)C7OC7OC(CO)C(O)C(O)C7OC7OC(CO)C(O)C(O)C7O)C(O)C6O)[C@H](O)C[C@]5(C)[C@H]4CC[C@]3(C)[C@H]1[C@@H]2C (stereo not given in full) , system RXF 393: what GI50 was measured?
Result block: > 10 µM (inactive)

Query block: Entry O=C(/C=C/c1ccccc1Cl)NC1C=Nc2ccc([N+](=O)[O-])cc2NC1 (stereo not given) , system RXF 393: what GI50 was measured?
Result block: 97.7 µM (inactive)

---

reported-endpoint: GI50 (µM)
All answers are understood in µM, so give the number only.

Query block: Entry O=[N+]([O-])c1ccc(O)c(/C=N/c2nc(-c3ccccc3)cs2)c1 , system HCT-15: what GI50 was measured?
Result block: 29.1

Query block: Entry CC(C)(C)OC(=O)NCCCCC1NC(=O)[C@@H]2Cc3c([nH]c4ccccc34)C(c3ccccc3)N2C1=O (stereo not given in full) , system HCT-15: what GI50 was measured?
Result block: 31.1

Query block: Entry Oc1ccccc1CNCc1nc2ccccc2[nH]1 , system HCT-15: what GI50 was measured?
Result block: 3.01

---

- Tested on: A549
- test-name: NCI tumour cell line growth inhibition, 48 h
Activity calls are given as the source filed them. Rule as the data show it: active = GI50 up to about 1.1 µM and inactive = higher.
Consider the following molecules; for each one, report its GI50.

Query block: Value lookup for GI50; key = NS(=O)(=O)c1ccc(NC(=O)c2cccc3cc4ccccc4nc23)cc1
Result block: 10 µM (inactive)

Query block: Value lookup for GI50; key = O=[N+]([O-])c1ccc(O)c(/C=N/c2nc(-c3ccccc3)cs2)c1
Result block: 38.5 µM (inactive)

Query block: Value lookup for GI50; key = CCc1cc2c(cc1C(=O)CCC(=O)O)CC1(C2)Cc2cc(CC)c(C(=O)CCC(=O)O)cc2C1
Result block: > 100 µM (inactive)

Query block: Value lookup for GI50; key = CC(=O)CCn1c(=S)sc2ccccc21
Result block: > 100 µM (inactive)

Query block: Value lookup for GI50; key = Clc1c(Cl)c(Cl)c2nn(C3CCCO3)nc2c1Cl (stereo unspecified)
Result block: 37.4 µM (inactive)

Query block: Value lookup for GI50; key = COC(=O)/C=C\C(C#N)(C#N)/N=C/c1ccc(C)cc1
Result block: 17.7 µM (inactive)

Query block: Value lookup for GI50; key = COc1cccc(C2c3cc4c(cc3OC(N3CCOCC3)C2C)OCO4)c1OC (stereo unspecified)
Result block: 9.98 µM (inactive)

Query block: Value lookup for GI50; key = CC1CCC2C(C)C(=O)OC3OC4(C)CCC1C32OO4 (stereo unspecified)
Result block: 89.1 µM (inactive)

Query block: Value lookup for GI50; key = O=C1c2scc(-c3ccc(F)cc3)c2-n2cccc21
Result block: 56.5 µM (inactive)

Query block: Value lookup for GI50; key = C=CCCCC1(C)CCCCNC1=O (stereo unspecified)
Result block: > 10 µM (inactive)

Query block: Value lookup for GI50; key = COc1ccc(C2=C(Cl)c3cc(OC)c(OC)cc3C2=O)cc1OC
Result block: 36.9 µM (inactive)

---

- Test system: Malme-3M
- test-name: NCI tumour cell line growth inhibition, 48 h
Activity calls are given as the source filed them. No stated cut-off is given here; in the data, active = GI50 up to about 1.1 µM and inactive = higher.
reported-endpoint: GI50

Query block: Value lookup for GI50; key = CCCCCCCCCCCCCCNCC(OC)OC
Result block: 19.8 µM (inactive)

Query block: Value lookup for GI50; key = CCOc1ccc(/N=N/c2ccc(-c3ccc(/N=N/c4c(O)ccc5cc(S(=O)(=O)O)cc(S(=O)(=O)O)c45)cc3)cc2)cc1
Result block: 18.5 µM (inactive)

Query block: Value lookup for GI50; key = S=C(c1c[nH]c2ccccc12)N1CCCCC1
Result block: > 100 µM (inactive)

Query block: Value lookup for GI50; key = COC(=O)NC(=O)NC(Cc1ccccc1)NC(=O)OCc1ccccc1 (stereo not given)
Result block: > 100 µM (inactive)

Query block: Value lookup for GI50; key = Cn1c(=O)c2nc3c4ccccc4c(=O)n(C)c3nc2n(C)c1=O
Result block: > 100 µM (inactive)

Query block: Value lookup for GI50; key = O=C(O)CN(CC(=O)O)C1CCCCC1N1CC(=O)OC(=O)C1 (stereo not given)
Result block: 10.3 µM (inactive)

Query block: Value lookup for GI50; key = [N-]=[N+]=NC1=C(c2ccccc2)C(=O)c2cccc3cccc1c23
Result block: 18.8 µM (inactive)

Query block: Value lookup for GI50; key = COc1ccc(C(=O)c2c(-c3ccccc3NC(=O)C(F)(F)F)[nH]c3ccccc23)cc1
Result block: 14.4 µM (inactive)

Query block: Value lookup for GI50; key = Cn1c(=O)c2nc(CCS)[nH]c2n(C)c1=O
Result block: > 100 µM (inactive)

Query block: Value lookup for GI50; key = CN(C)c1ccc(O[Si](Oc2ccc(N(C)C)cc2)(Oc2ccc(N(C)C)cc2)Oc2ccc(N(C)C)cc2)cc1
Result block: > 100 µM (inactive)

Query block: Value lookup for GI50; key = O=C(NCCO)c1cc2c(cn1)[nH]c1ccccc12
Result block: 22.1 µM (inactive)

Query block: Value lookup for GI50; key = CCOC(=O)/C(=C\NCc1ccc2c(c1)OCO2)c1nc2ccccc2[nH]1
Result block: 41.7 µM (inactive)

Query block: Value lookup for GI50; key = COc1cc(C)c2c(c1C)OC(=O)c1c(C)c(Cl)c(O)c(C=O)c1O2
Result block: 15.5 µM (inactive)

Query block: Value lookup for GI50; key = Cc1ccc(NC(=O)C(=O)C(C(=O)c2ccc3ccccc3c2)C2OC(=O)c3ccccc32)cc1C (stereo not given)
Result block: 12.7 µM (inactive)

Query block: Value lookup for GI50; key = C=CCn1c2ccccc2c2c(C)c3cnccc3c(C)c21
Result block: 13.8 µM (inactive)

Query block: Value lookup for GI50; key = CC(=O)NNc1nc(C)c(C(/C=C/c2ccccc2O)=N/NC(=O)c2ccncc2)s1
Result block: > 100 µM (inactive)

Query block: Value lookup for GI50; key = O=S(=O)(c1ccccc1)C(CN1CCCCC1)S(=O)(=O)c1ccccc1
Result block: > 100 µM (inactive)

Query block: Value lookup for GI50; key = COc1ccccc1NC(=O)C(CC(C(=O)Nc1ccccc1OC)/C(C)=N/Nc1ccc([N+](=O)[O-])cc1[N+](=O)[O-])/C(C)=N/Nc1ccc([N+](=O)[O-])cc1[N+](=O)[O-] (stereo not given)
Result block: > 100 µM (inactive)

Query block: Value lookup for GI50; key = COc1ccccc1N1C(=O)C2C3c4ccccc4C(OC(C)=O)(c4ccccc43)C2C1=O (stereo not given)
Result block: 33.8 µM (inactive)

Query block: Value lookup for GI50; key = COC(=O)c1cc(C)n(CN(Cc2ccccc2)Cn2nc(C(=O)OC)cc2C)n1
Result block: > 100 µM (inactive)
